# Tested on: RARb:RXRa (NR concentration 270 nM, RXRa partner concentration 90 nM)
# Assay remarks: PBM binding z-score (relative to random genomic background probes); higher = stronger binding; sequences stand for … in GC…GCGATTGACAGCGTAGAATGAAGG
Form field: PBM binding z-score (one value per entry).

Macromolecule sequence: CCTAGCAGGACAGGGTCACTCAAGCATTTCGCTT
Measured on: RARb:RXRa (NR concentration 270 nM, RXRa partner concentration 90 nM)
PBM binding z-score: 2.57
//
Macromolecule sequence: CCTACTGGGCCATCAAGTCATTGATATCAACGTT
Measured on: RARb:RXRa (NR concentration 270 nM, RXRa partner concentration 90 nM)
PBM binding z-score: 0.23
//
Macromolecule sequence: ATCTCTAGGTAAAGATCGTTCAGTGAATGCAAAT
Measured on: RARb:RXRa (NR concentration 270 nM, RXRa partner concentration 90 nM)
PBM binding z-score: -0.0299
//
Macromolecule sequence: ATCTCTAGGTAAAAGTCCAGTGAATCCCGAGGAT
Measured on: RARb:RXRa (NR concentration 270 nM, RXRa partner concentration 90 nM)
PBM binding z-score: 0.582
//
Macromolecule sequence: CGTCCAAGGTCAGCAGGTCAGGGAAAGCGACGTG
Measured on: RARb:RXRa (NR concentration 270 nM, RXRa partner concentration 90 nM)
PBM binding z-score: 5.27
//
Macromolecule sequence: ACAATGAGGTTATACGTAGATCAGGGAAGAAAGT
Measured on: RARb:RXRa (NR concentration 270 nM, RXRa partner concentration 90 nM)
PBM binding z-score: 1.69
//
Macromolecule sequence: GCTAGTTGGTCAGTATAAGGTCACACACCGGTCG
Measured on: RARb:RXRa (NR concentration 270 nM, RXRa partner concentration 90 nM)
PBM binding z-score: 3.5
//
Macromolecule sequence: ATATCTAGGTTAAGGGTCATTCAGGTTGGTTCGC
Measured on: RARb:RXRa (NR concentration 270 nM, RXRa partner concentration 90 nM)
PBM binding z-score: 3.98
//
Macromolecule sequence: CAAACTAGGTCACAGAGGTCAAGGTCCGTGCGTA
Measured on: RARb:RXRa (NR concentration 270 nM, RXRa partner concentration 90 nM)
PBM binding z-score: 5.46
//
Macromolecule sequence: CCTCGGCGGACAGAAGGTCAGAGCTGTCCGCTTT
Measured on: RARb:RXRa (NR concentration 270 nM, RXRa partner concentration 90 nM)
PBM binding z-score: 2.52
//
Macromolecule sequence: AGAACGAGGGCAATGAGTTTATAGCACGGGTGGC
Measured on: RARb:RXRa (NR concentration 270 nM, RXRa partner concentration 90 nM)
PBM binding z-score: 2.44
//
Macromolecule sequence: ATCTCTAGGTAAAAGTTCAGTGATTCCCGAGGAT
Measured on: RARb:RXRa (NR concentration 270 nM, RXRa partner concentration 90 nM)
PBM binding z-score: 2.32
//
Macromolecule sequence: TTGCCTAGGTCATGGGCCAGTATACCACGCGAAC
Measured on: RARb:RXRa (NR concentration 270 nM, RXRa partner concentration 90 nM)
PBM binding z-score: 4.07
//
Macromolecule sequence: ACTAGCAGGCCAAGTTTGGGTCACCCAAACAAAG
Measured on: RARb:RXRa (NR concentration 270 nM, RXRa partner concentration 90 nM)
PBM binding z-score: 2.06
//
Macromolecule sequence: GCATATAGGTAATACAATGTGAAAGTCCGATTGT
Measured on: RARb:RXRa (NR concentration 270 nM, RXRa partner concentration 90 nM)
PBM binding z-score: 0.0649
//
Macromolecule sequence: TCAGACAGGTGACGGTAACTCAGGTACGCAGTCG
Measured on: RARb:RXRa (NR concentration 270 nM, RXRa partner concentration 90 nM)
PBM binding z-score: 0.885
//
Macromolecule sequence: CCTACTGGGCCAAAGGTCATTGAGTCCAATGCTC
Measured on: RARb:RXRa (NR concentration 270 nM, RXRa partner concentration 90 nM)
PBM binding z-score: 4.71
//
Macromolecule sequence: CCGACTGGGGCATAAGGGTACCATAAGCCAGCCC
Measured on: RARb:RXRa (NR concentration 270 nM, RXRa partner concentration 90 nM)
PBM binding z-score: 0.641
//
Macromolecule sequence: AGTCAAAGTTAACTAGGTAACGTAAGATTCAGCT
Measured on: RARb:RXRa (NR concentration 270 nM, RXRa partner concentration 90 nM)
PBM binding z-score: 0.61
//
Macromolecule sequence: AGAATGAGGTTACCAAAGAACAGGGAAACGCTTG
Measured on: RARb:RXRa (NR concentration 270 nM, RXRa partner concentration 90 nM)
PBM binding z-score: 2.11
//
Macromolecule sequence: CCTACTGGGGCATAAGGTTACCATAAGCCAGCCC
Measured on: RARb:RXRa (NR concentration 270 nM, RXRa partner concentration 90 nM)
PBM binding z-score: 1.74
//
Macromolecule sequence: AGAATGAGGGTAAGATCAGGGAAACAGAATACAT
Measured on: RARb:RXRa (NR concentration 270 nM, RXRa partner concentration 90 nM)
PBM binding z-score: 0.741
//
Macromolecule sequence: GGAACGAGGGCAAAGTTGAGAGCATCTGTCGACG
Measured on: RARb:RXRa (NR concentration 270 nM, RXRa partner concentration 90 nM)
PBM binding z-score: 2.61
//
Macromolecule sequence: CGGACGAGGGCATGAGTTGATAGCAAATGCCGAT
Measured on: RARb:RXRa (NR concentration 270 nM, RXRa partner concentration 90 nM)
PBM binding z-score: 2.03
//
Macromolecule sequence: TCTCGGAGGACACGAAGGTCCGAGCTTTCCAGAG
Measured on: RARb:RXRa (NR concentration 270 nM, RXRa partner concentration 90 nM)
PBM binding z-score: 1.56
//
Macromolecule sequence: TCTAGATGGTCACGGAGGTCACACACGACGGGTA
Measured on: RARb:RXRa (NR concentration 270 nM, RXRa partner concentration 90 nM)
PBM binding z-score: 3.9
